Cited source: ChEMBL document CHEMBL1139344

- assay-procedure: Oral bioavailability in Sprague-Dawley rat
- Type: ADME, organism-based
- test-parameters: in vivo
reported-property: bioavailability
Write down the value, and be sure its unit follows.

[ask] Given the entry `Cc1cc(Cn2nnc3c(-c4ccco4)nc(N)nc32)ccc1N` , report its measured bioavailability.
[reply] 35%

* * *

- assayed-system: Adenosine receptor A3 (Homo sapiens)
- Sequence (P0DMS8 whole entry): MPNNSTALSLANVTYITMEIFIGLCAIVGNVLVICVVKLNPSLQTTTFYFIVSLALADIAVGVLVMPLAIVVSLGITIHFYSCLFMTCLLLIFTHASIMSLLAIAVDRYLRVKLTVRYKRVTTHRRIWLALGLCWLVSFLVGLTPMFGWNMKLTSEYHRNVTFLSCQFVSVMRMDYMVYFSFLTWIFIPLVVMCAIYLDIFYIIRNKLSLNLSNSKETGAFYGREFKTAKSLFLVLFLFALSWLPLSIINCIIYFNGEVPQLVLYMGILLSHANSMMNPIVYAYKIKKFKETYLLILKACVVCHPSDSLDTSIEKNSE
- assay-procedure: Displacement of radioligand from human recombinant adenosine A3 receptor at 21 degC after 60 mins by cell-based microplate scintillation counting
reported-property: log10 of Ki (log10 of the value in µM)
All values: base-10 log of Ki in µM.

Nc1nc(-c2ccco2)c2nnn(Cc3c(F)cccc3F)c2n1; -0.69

Please state log10 of Ki for every compound in the list that follows.
1. CC(=O)Nc1ccc(Cn2nnc3c(-c4ccco4)nc(N)nc32)cc1
2. Nc1nc(-c2ccco2)c2nnn(Cc3ccccc3[N+](=O)[O-])c2n1
3. Nc1nc(-c2ccco2)c2nnn(Cc3cccc(C(=O)O)c3)c2n1
4. CCc1cc(Cn2nnc3c(-c4ccco4)nc(N)nc32)ccc1N
5. Nc1nc(-c2ccco2)c2nnn(Cc3ccccc3N)c2n1

[reply]
1. 0.38
2. -0.77
3. 0.58
4. -0.66
5. -0.52
